molecular target: S-adenosylmethionine synthase isoform type-2 (Rattus norvegicus); experiment: Substrate activity of compound (4 mM) measured as the rate of conversion of [C14]-ATP to [C14]-Adomet in relation to KM value of methionine with rat Methionine adenosyltransferase II
With a cut-off of 30 c.p.m., any Substrate activity strictly below it is called True; any Substrate activity meeting it or above is called False.

compound=CS[C@H](C)C[C@H](N)C(=O)O assigned_label=False
compound=CCCCN[C@@H](CCSC)C(=O)O assigned_label=True
compound=CN[C@@H](CCSC)C(=O)O assigned_label=True
compound="CSC(C)C[C@@H](N)C(=O)O (some centres undefined)" assigned_label=False
compound=CSCC[C@@](C)(N)C(=O)O assigned_label=False
compound="CSCC(C)C(N)C(=O)O (centres undefined)" assigned_label=False
compound=CSC[C@@H](C)[C@@H](N)C(=O)O assigned_label=False

Please find the next compound below.
Task: Check if Substrate activity falls below 30 c.p.m. for CSC[C@@H](C)[C@H](N)C(=O)O .
Result: True

###

assay: Ratio of relative Vmax of normal tissue (M-2) form of rat methionine Adenosyltransferase to that of KM of normal tissue(M-2)form of rat methionine Adenosyltransferase
Measured Ratio, listed per entry.
// return just the number, without any unit appended

Would you please look over these solved cases?
compound=CSC[C@@H](C)[C@@H](N)C(=O)O assay_value=0.9
compound=CS[C@H](C)C[C@H](N)C(=O)O assay_value=1.9
compound="CSCC(C)C(N)C(=O)O (stereo not given)" assay_value=4.4
compound="CSC(C)C[C@@H](N)C(=O)O (stereo not given in full)" assay_value=2.6

Below: the item to evaluate.
Task: Answer with the recorded Ratio for the compound listed here: CSCC[C@H](N)C(=O)O
Result: 20000

###

Measured Substrate activity, listed per entry.
biological target: S-adenosylmethionine synthetase (MAT 1 and MAT 2) (Rattus norvegicus) (UniProt P13444+P18298); experiment: Substrate activity as rate of conversion of [C14]-ATP to [C14]-Adomet in relation to KM value of methionine with M-T of rat methionine adenosyltransferase; type: protein assay
Could you give me the number in c.p.m.? Just the number is fine.

Task: Answer with the recorded Substrate activity for the compound listed here: CSC[C@@H](C)C(N)C(=O)O (stereo not given in full)
Result: 348

Task: Answer with the recorded Substrate activity for the compound listed here: CN[C@@H](CCSC)C(=O)O
Result: 36

Task: Answer with the recorded Substrate activity for the compound listed here: CSC(C)C[C@@H](N)C(=O)O (stereo not given in full)
Result: 272

###

target: S-adenosylmethionine synthetase (MAT 1 and MAT 2) (Rattus norvegicus) (UniProt P13444+P18298); test: Compound (3 mM) was tested for the inhibition of conversion of [14C]methionine to [14C]-AdoMet by M-T (hepatoma tissue) of rat methionine adenosyltransferase; assay type: protein assay
Measured inhibition, listed per entry.
Could you give me the number in %? Just the number is fine.

Would you please look over these solved cases?
molecule=CSC[C@@H](C)[C@H](N)C(=O)O assay_value=6.6
molecule=CS[C@H](C)C[C@H](N)C(=O)O assay_value=15
molecule="CSC(C)C[C@@H](N)C(=O)O (stereo partly drawn)" assay_value=24

Task: Answer with the recorded inhibition for the molecule listed here: CS[C@@H](C)C[C@@H](N)C(=O)O
Result: 14

Task: Answer with the recorded inhibition for the molecule listed here: CSC[C@@H](C)[C@@H](N)C(=O)O
Result: 15

###

biological target: S-adenosylmethionine synthetase (MAT 1 and MAT 2) (Rattus norvegicus) (UniProt P13444+P18298); experiment: Substrate activity as rate of conversion of [C14]-ATP to [C14]-Adomet in relation to KM value of methionine with M-T of rat methionine adenosyltransferase; assay type: protein assay
Label criterion met when Substrate activity is at or above 200 c.p.m.; otherwise label criterion not met.

structure=CSCC[C@@](C)(N)C(=O)O assigned_label="criterion not met"
structure=CS[C@@H](C)C[C@@H](N)C(=O)O assigned_label="criterion not met"
structure=CSC[C@@H](C)[C@@H](N)C(=O)O assigned_label="criterion met"
structure=CS[C@H](C)C[C@H](N)C(=O)O assigned_label="criterion met"
structure=CCCCN[C@@H](CCSC)C(=O)O assigned_label="criterion not met"

Task: Answer whether Substrate activity of CSC[C@@H](C)[C@H](N)C(=O)O is greater than or equal to 200 c.p.m..
Result: criterion not met

Task: Answer whether Substrate activity of CSCC[C@](C)(N)C(=O)O is greater than or equal to 200 c.p.m..
Result: criterion met

###

target: S-adenosylmethionine synthetase (MAT 1 and MAT 2) (Rattus norvegicus) (UniProt P13444+P18298); assay: Compound (3 mM) was tested for the inhibition of conversion of [14C]methionine to [14C]-AdoMet by M-T (hepatoma tissue) of rat methionine adenosyltransferase; type: protein assay
Measured inhibition, listed per entry.
Could you give me the number in %? Just the number is fine.

Task: Answer with the recorded inhibition for the compound listed here: CSC[C@@H](C)C(N)C(=O)O (stereo partly drawn)
Result: 8.7

Task: Answer with the recorded inhibition for the compound listed here: CSCC[C@](C)(N)C(=O)O
Result: 11

Task: Answer with the recorded inhibition for the compound listed here: CN[C@@H](CCSC)C(=O)O
Result: 0
